- target_entity: Kappa-type opioid receptor (Cavia porcellus)
- Sequence (P41144 whole entry): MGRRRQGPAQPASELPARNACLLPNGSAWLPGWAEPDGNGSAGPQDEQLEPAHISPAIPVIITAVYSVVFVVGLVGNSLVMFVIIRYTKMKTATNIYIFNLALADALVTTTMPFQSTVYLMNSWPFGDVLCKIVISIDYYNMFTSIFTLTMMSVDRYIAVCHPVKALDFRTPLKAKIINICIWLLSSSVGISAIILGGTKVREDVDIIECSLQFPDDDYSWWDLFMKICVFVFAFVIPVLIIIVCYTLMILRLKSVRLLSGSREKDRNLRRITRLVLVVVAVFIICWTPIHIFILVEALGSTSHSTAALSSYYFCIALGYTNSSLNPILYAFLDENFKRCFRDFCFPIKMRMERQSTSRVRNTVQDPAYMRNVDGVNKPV
measurement_label: pKi
Please express pKi as -log10 of the molar concentration.

Any idea what pKi came out for `Oc1ccc2c3c1O[C@H]1c4oc5ccccc5c4C[C@@]4(O)[C@@H](C2)N(CC2CC2)CC[C@]314` on Kappa-type opioid receptor (Cavia porcellus)?
6.82
